- Assay procedure: Pharmacokinetic parameters in dog
- Assay type: in vivo
- Test parameters: plasma; Dog (12.5-15 mg/kg)
Measurement name: AUC (ng·h/mL)
Your answer is read as ng·h/mL, so omit the unit and give the number.

## Input Please give the measured AUC for this compound: CC(=O)NC[C@H]1CN(c2ccc(N3CCOCC3)c(F)c2)C(=O)O1
## Output 42000

* * *

- Assay procedure: Pharmacokinetic parameters in mouse
- Assay type: in vivo, BALB/c mice
- Test parameters: BALB/c, plasma; Mouse (10 mg/kg); read-out: AUC
Measurement name: AUC (ng·h/mL)
Your answer is read as ng·h/mL, so omit the unit and give the number.

## Input Please give the measured AUC for this compound: CC(=O)NC[C@H]1CN(c2ccc(N3CCOCC3)c(F)c2)C(=O)O1
## Output 7300

* * *

- Assay procedure: Pharmacokinetic parameters in mouse
- Type: in vivo, BALB/c mice
- Test parameters: BALB/c, plasma, oral; mouse, at the minimum effective dose; read-out: AUC
Measurement name: AUC (µg·h/mL)
Your answer is read as µg·h/mL, so omit the unit and give the number.

## Input Please give the measured AUC for this molecule: CC(=O)NC[C@H]1CN(c2ccc(N3CCOCC3)c(F)c2)C(=O)O1
## Output 279

* * *

- Assay procedure: Pharmacokinetic parameters in rat
- Type: in vivo
- Test parameters: plasma; Rat (20-25 mg/kg)
Measurement name: AUC (ng·h/mL)
Your answer is read as ng·h/mL, so omit the unit and give the number.

## Input Please give the measured AUC for this compound: CC(=O)NC[C@H]1CN(c2ccc(N3CCOCC3)c(F)c2)C(=O)O1
## Output 41600

* * *

- Assay procedure: Pharmacokinetic parameters in mouse
- Assay type: in vivo, BALB/c mice
- Test parameters: BALB/c, mouse, in vivo
Measurement name: AUC (µg·h/mL)
Your answer is read as µg·h/mL, so omit the unit and give the number.

## Input Please give the measured AUC for this compound: O=C([C@@H](O)CO)N1CC=C(c2c(F)cc(N3C[C@H](COc4ccon4)OC3=O)cc2F)CC1
## Output 150

* * *

- Assay procedure: PPB (fraction free), mouse
- Test parameters: plasma
Measurement name: fraction unbound
# output: bare number, no unit

## Input Please give the measured fraction unbound for this compound: CC(=O)NC[C@H]1CN(c2ccc(N3CCOCC3)c(F)c2)C(=O)O1 [Linezolid]
## Output 0.7

* * *

- Assay procedure: Pharmacokinetic parameters in mouse
- Assay type: in vivo, BALB/c mice
- Test parameters: BALB/c, plasma; Mouse (10 mg/kg)
Measurement name: half-life (h)
Your answer is read as h, so omit the unit and give the number.

- Compound: "CC(=O)NC[C@H]1CN(c2ccc(N3CCOCC3)c(F)c2)C(=O)O1 [Linezolid]"
  half-life (h): 1

// below: half-life requested for another compound
## Input Please give the measured half-life for this compound: O=C([C@@H](O)CO)N1CC=C(c2c(F)cc(N3C[C@H](COc4ccon4)OC3=O)cc2F)CC1 [AZD2563]
## Output 1.3

* * *

- Assay procedure: Pharmacokinetic parameters in mouse
- Format: in vivo, BALB/c mice
- Test parameters: BALB/c, mouse, in vivo, 10 mg/kg
- Description: BALB/c mice (8-10 week old) were dosed with the compound in an appropriate vehicle at specified doses as a single dose at a dose volume of 10 mL/Kg. The dose was administered either orally or parentally. Blood samples were collected at various time points ranging from 0.08 h to 50 h post dosing and plasma harvested by acceptable methods like precipitation or extraction. The concentration of the compound in plasma was determined by standard analytical instruments like HPLC and/or LC-MS. […]
Measurement name: AUC (ng·h/mL)
Your answer is read as ng·h/mL, so omit the unit and give the number.

## Input Please give the measured AUC for this molecule: O=C([C@@H](O)CO)N1CC=C(c2c(F)cc(N3C[C@H](COc4ccon4)OC3=O)cc2F)CC1
## Output 20300
